Listing: Tmax of selected compounds
# assay comment: Tmax in BALB/c mouse at 10 mg/kg,po administration measured upto 24 hrs by LC-MS/MS analysis
# Assay type: ADME, organism-based
# details: in vivo
readout label: Tmax

# smiles, readout label, value
rows = [
    ("COC(=O)NC[C@@H]1OC(=O)N2Cc3cc(-c4ccc(C#N)cc4)c(F)cc3O[C@@H]12", "Tmax", "4 h"),
    ("CC(=O)NC[C@@H]1OC(=O)N2Cc3cc(-c4ccc(C#N)cc4)c(F)cc3O[C@@H]12", "Tmax", "2 h"),
]

---

# assay comment: Metabolic stability in ICR mouse liver microsomes assessed as compound remaining at 10 uM incubated for 60 mins in absence of NADPH by LC-MS/MS analysis
# Type: ADME, Microsome
# details: read-out: Stability
# reported remaining at 1 h, 10 µM; entries follow

# smiles, remaining at 1 h, 10 µM
rows = [
    ("COC(=O)NC[C@@H]1OC(=O)N2Cc3cc(-c4ccc(C#N)nc4)c(F)cc3O[C@@H]12", "113%"),
    ("CC(=O)NC[C@@H]1OC(=O)N2Cc3cc(-c4ccc(C#N)cc4)c(F)cc3O[C@@H]12", "101%"),
    ("COC(=O)NC[C@@H]1OC(=O)N2Cc3cc(-c4ccc(C#N)cc4)c(F)cc3O[C@@H]12", "112%"),
    ("COC(=O)NC[C@@H]1OC(=O)N2Cc3cc(-c4ccc(-c5nnn(C)n5)nc4)c(F)cc3O[C@@H]12", "104%"),
]

---

Some compounds, each annotated with its measured MRT inf.
# assay comment: MRT (0 to infinity) in BALB/c mouse at 1 mg/kg,iv administration measured upto 24 hrs by LC-MS/MS analysis
# Format: ADME, organism-based
# details: in vivo

# smiles, MRT inf [h]
measured = [
    ("COC(=O)NC[C@@H]1OC(=O)N2Cc3cc(-c4ccc(C#N)cc4)c(F)cc3O[C@@H]12", 8.4),
    ("CC(=O)NC[C@@H]1OC(=O)N2Cc3cc(-c4ccc(C#N)cc4)c(F)cc3O[C@@H]12", 6.7),
]

---

# assay comment: Oral bioavailability in BALB/c mouse at 10 mg/kg administration measured upto 24 hrs by LC-MS/MS analysis
# Type: ADME, organism-based
# details: BALB/c, in vivo
Each entry below carries its recorded bioavailability.
readout label: bioavailability (%)

# smiles, value
rows = [
    ("CC(=O)Nc1ccc(O)cc1", 27.6),
    ("CC(=O)NC[C@@H]1OC(=O)N2Cc3cc(-c4ccc(C#N)cc4)c(F)cc3O[C@@H]12", 122),
]

---

# assay comment: Clearance in BALB/c mouse at 1 mg/kg,iv administration measured upto 24 hrs by LC-MS/MS analysis
# Assay type: ADME, organism-based
# details: in vivo
readout label: clearance

# smiles, value
rows = [
    ("COC(=O)NC[C@@H]1OC(=O)N2Cc3cc(-c4ccc(C#N)cc4)c(F)cc3O[C@@H]12", "2.42 mL/min/kg"),
    ("CC(=O)NC[C@@H]1OC(=O)N2Cc3cc(-c4ccc(C#N)cc4)c(F)cc3O[C@@H]12", "2.92 mL/min/kg"),
]

---

# Tested on: Staphylococcus aureus
# assay comment: Antibacterial activity against Linezolid resistant Staphylococcus aureus clinical isolate 20-2 assessed as inhibition of bacterial growth incubated for 7 days by alamar blue assay
# Format: functional
# details: clinical isolate 20-2, 168 h, time 7 day

# smiles, units symbol, MIC
rows = [
    ("COC(=O)NC[C@@H]1OC(=O)N2Cc3cc(-c4ccc(C#N)cc4)c(F)cc3O[C@@H]12", "µg/mL", 8),
    ("CC(=O)NC[C@@H]1OC(=O)N2Cc3c(cc(F)c(-c4ccc(-c5nnn(C)n5)nc4)c3F)O[C@@H]12", "µg/mL", 8),
    ("COC(=O)NC[C@@H]1OC(=O)N2Cc3cc(-c4ccc(C#N)nc4)c(F)cc3O[C@@H]12", "µg/mL", 16),
]

---

# assay comment: Metabolic stability in human liver microsomes assessed as substrate remaining at 10 uM incubated for 60 mins in presence of NADPH by LC-MS/MS analysis
# Format: ADME, Microsome
# details: read-out: Stability
// values below are reported remaining at 1 h, 10 µM

# molecule, remaining at 1 h, 10 µM [%]
measured = [
    ("CC(=O)NC[C@@H]1OC(=O)N2Cc3cc(-c4ccc(C#N)cc4)c(F)cc3O[C@@H]12", 116),
    ("Cc1ncc2n1-c1ccc(Cl)cc1C(c1ccccc1F)=NC2 [MIDAZOLAM]", 62),
    ("COC(=O)NC[C@@H]1OC(=O)N2Cc3cc(-c4ccc(C#N)nc4)c(F)cc3O[C@@H]12", 103),
    ("COC(=O)NC[C@@H]1OC(=O)N2Cc3cc(-c4ccc(C#N)cc4)c(F)cc3O[C@@H]12", 113),
    ("COC(=O)NC[C@@H]1OC(=O)N2Cc3cc(-c4ccc(-c5nnn(C)n5)nc4)c(F)cc3O[C@@H]12", 110),
]

---

compounds and their reported MRT last at 24 h
# assay comment: MRT (0 to t) in BALB/c mouse at 1 mg/kg,iv administration measured upto 24 hrs by LC-MS/MS analysis
# Assay type: ADME, organism-based
# details: in vivo

# smiles, units symbol, MRT last at 24 h
data = [
    ("COC(=O)NC[C@@H]1OC(=O)N2Cc3cc(-c4ccc(C#N)cc4)c(F)cc3O[C@@H]12", "h", 8.1),
    ("CC(=O)NC[C@@H]1OC(=O)N2Cc3cc(-c4ccc(C#N)cc4)c(F)cc3O[C@@H]12", "h", 6.6),
]

---

# Test system: Staphylococcus aureus
# assay comment: Antibacterial activity against methicillin resistant Staphylococcus aureus clinical isolate 20-2 assessed as inhibition of bacterial growth incubated for 7 days by alamar blue assay
# Type: functional
# details: clinical isolate 20-2, 168 h, time 7 day
# key: entry, value: MIC
readout label: MIC

# smiles, subject of test, value
rows = [
    ("COC(=O)NC[C@@H]1OC(=O)N2Cc3cc(-c4ccc(C#N)cc4)c(F)cc3O[C@@H]12", "Staphylococcus aureus", "0.5 µg/mL"),
    ("COC(=O)NC[C@@H]1OC(=O)N2Cc3cc(-c4ccc(-c5nnn(C)n5)nc4)c(F)cc3O[C@@H]12", "Staphylococcus aureus", "0.25 µg/mL"),
    ("CC(=O)NC[C@@H]1OC(=O)N2Cc3c(cc(F)c(-c4ccc(C#N)nc4)c3F)O[C@@H]12", "Staphylococcus aureus", "1 µg/mL"),
    ("COC(=O)NC[C@@H]1OC(=O)N2Cc3cc(-c4ccc(C#N)nc4)c(F)cc3O[C@@H]12", "Staphylococcus aureus", "0.5 µg/mL"),
    ("CC(=O)NC[C@@H]1OC(=O)N2Cc3c(cc(F)c(-c4ccc(-c5nnn(C)n5)nc4)c3F)O[C@@H]12", "Staphylococcus aureus", "1 µg/mL"),
    ("CC(=O)NC[C@@H]1OC(=O)N2Cc3cc(-c4ccc(C#N)cc4)c(F)cc3O[C@@H]12", "Staphylococcus aureus", "0.5 µg/mL"),
    ("CC(=O)NC[C@H]1CN(c2ccc(N3CCOCC3)c(F)c2)C(=O)O1", "Staphylococcus aureus", "1 µg/mL"),
]

---

# assay comment: Cytotoxicity against African green monkey Vero cells incubated for 48 hrs by MTT assay
# Format: toxicity, cell-based, Chlorocebus sabaeus
Could you please mark rule met for values of IC50 at 48 h below 40 µg/mL and rule not met for values at or above it?

# smiles, assigned category
rows = [
    ("N#Cc1ccc(-c2c(F)cc3c(c2F)CN2C(=O)O[C@@H](CN)[C@@H]2O3)cn1", "rule not met"),
    ("CC(=O)NC[C@@H]1OC(=O)N2Cc3cc(-c4ccc(C#N)cc4)c(F)cc3O[C@@H]12", "rule met"),
    ("COc1cc(-c2cc3c(cc2F)O[C@H]2[C@H](CNC(C)=O)OC(=O)N2C3)ccn1", "rule met"),
    ("CC(=O)c1ccc(-c2c(F)cc3c(c2F)CN2C(=O)O[C@@H](CN)[C@@H]2O3)cc1", "rule met"),
    ("Cn1nnc(-c2ccc(-c3c(F)cc4c(c3F)CN3C(=O)O[C@@H](CN)[C@@H]3O4)cn2)n1", "rule met"),
    ("CC(=O)NC[C@H]1OC(=O)N2Cc3cc(-c4ccc(C#N)nc4)c(F)cc3O[C@@H]12", "rule not met"),
    ("N#Cc1ccc(-c2c(F)cc3c(c2F)CN2C(=O)O[C@@H](CN)[C@@H]2O3)cc1", "rule met"),
    ("CC(=O)NC[C@@H]1OC(=O)N2Cc3cc(-c4ccc(C(C)=O)cc4)c(F)cc3O[C@@H]12", "rule not met"),
    ("CC(=O)NC[C@H]1CN(c2ccc(N3CCOCC3)c(F)c2)C(=O)O1", "rule not met"),
    ("CC(=O)NC[C@@H]1OC(=O)N2Cc3cc(-c4ccnc(C#N)c4)c(F)cc3O[C@@H]12", "rule not met"),
    ("CC(=O)NC[C@@H]1OC(=O)N2Cc3c(cc(F)c(-c4ccc(C(C)=O)cc4)c3F)O[C@@H]12", "rule not met"),
    ("CC(=O)NC[C@@H]1OC(=O)N2Cc3c(cc(F)c(-c4ccc(-c5nnn(C)n5)nc4)c3F)O[C@@H]12", "rule not met"),
    ("CC(=O)NC[C@@H]1OC(=O)N2Cc3cc(-c4ccn5ncnc5c4)c(F)cc3O[C@@H]12", "rule not met"),
]
